{"compound": "CC(NC(=O)C(CS)C(C)c1ccc(F)c(F)c1)C(=O)O (stereo not drawn)", "melting point": "61 °C"}
{"compound": "N#Cc1ccc(N2CCN(c3ccc(O)cc3)CC2)cc1", "melting point": "258 to 262 °C"}
{"compound": "CC(=O)Nc1ccc(OC(C)C(=O)O)cc1 (stereo not drawn)", "melting point": "170 to 172 °C"}
{"compound": "CC(C)(C)OC(=O)N1CC=C(C2=C(C#N)C(c3cccc4nonc34)c3c[nH]nc3N2)CC1 (stereo not drawn)", "melting point": "222 °C"}
{"compound": "COc1ccc(C=CC(=O)NCCc2ccc(I)c(S(N)(=O)=O)c2)c(OC)c1", "melting point": "180 °C"}
{"compound": "O=C(O)C=CC1CC1(c1cccc(C(F)(F)F)c1)c1cccc(C(F)(F)F)c1 (stereo not drawn)", "melting point": "147 to 148 °C"}
{"compound": "CC(C)OC(=O)CSc1ncnc2c(O)n(C)nc12", "melting point": "192 to 194 °C"}
{"compound": "CCCN(Cc1ccc(NCCN(CC)CC)c2c(=O)c3ccccc3sc12)S(C)(=O)=O", "melting point": "142 to 143 °C"}
